TARGET_OR_SYSTEM: hERG (KCNH2) (Homo sapiens, UniProt Q12809)
Sequence (Q12809 whole entry): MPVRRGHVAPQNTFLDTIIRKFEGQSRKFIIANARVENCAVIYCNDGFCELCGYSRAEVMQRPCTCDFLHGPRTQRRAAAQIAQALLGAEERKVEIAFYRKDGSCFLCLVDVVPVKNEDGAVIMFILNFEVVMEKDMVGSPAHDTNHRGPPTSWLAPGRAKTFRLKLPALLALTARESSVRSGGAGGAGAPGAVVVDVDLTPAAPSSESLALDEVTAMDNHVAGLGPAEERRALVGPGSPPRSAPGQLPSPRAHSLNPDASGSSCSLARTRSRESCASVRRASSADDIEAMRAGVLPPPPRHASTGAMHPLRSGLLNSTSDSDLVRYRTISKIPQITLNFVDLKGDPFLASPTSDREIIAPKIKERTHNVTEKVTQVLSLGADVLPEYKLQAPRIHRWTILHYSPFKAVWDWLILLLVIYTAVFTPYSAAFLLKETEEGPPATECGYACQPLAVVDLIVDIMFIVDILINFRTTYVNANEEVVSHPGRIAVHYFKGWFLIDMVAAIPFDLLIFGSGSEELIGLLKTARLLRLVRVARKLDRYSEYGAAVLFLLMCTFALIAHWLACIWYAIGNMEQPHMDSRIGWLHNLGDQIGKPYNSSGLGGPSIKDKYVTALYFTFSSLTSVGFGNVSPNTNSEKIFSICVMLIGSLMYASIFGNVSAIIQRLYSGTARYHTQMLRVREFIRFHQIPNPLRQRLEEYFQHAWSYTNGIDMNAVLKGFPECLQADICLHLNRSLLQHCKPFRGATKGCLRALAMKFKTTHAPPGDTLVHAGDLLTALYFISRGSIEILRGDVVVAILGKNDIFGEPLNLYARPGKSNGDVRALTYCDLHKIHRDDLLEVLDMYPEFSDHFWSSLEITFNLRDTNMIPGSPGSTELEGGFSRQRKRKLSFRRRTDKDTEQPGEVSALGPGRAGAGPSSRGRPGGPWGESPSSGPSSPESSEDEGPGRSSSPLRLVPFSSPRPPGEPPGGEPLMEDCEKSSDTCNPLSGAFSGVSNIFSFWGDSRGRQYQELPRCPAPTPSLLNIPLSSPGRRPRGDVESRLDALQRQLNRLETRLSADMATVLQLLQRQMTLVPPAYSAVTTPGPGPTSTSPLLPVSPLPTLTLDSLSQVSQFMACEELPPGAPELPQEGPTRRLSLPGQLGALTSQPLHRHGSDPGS
TEST: Inhibition of human ERG expressed in CHO cells at 10 uM by automated patch clamp electrophysiology assay relative to control
Assay type: cell-based
EXPERIMENTAL_SETUP: CHO cells that express hERG
// reported inhibition at 10 µM per item
Note: unit % is implicit; provide only the numeric part.

[
  {
    "MOLECULE": "O=C(Nc1ccc(Cl)c(Cl)c1)N1CCN(c2ccc3nncn3n2)CC1",
    "inhibition at 10 µM, %": 87
  },
  {
    "MOLECULE": "O=C(Cc1ccc(Cl)c(Cl)c1)N1CCN(c2ccc3nncn3n2)CC1",
    "inhibition at 10 µM, %": 67
  }
]

// moving on: another record for inhibition at 10 µM
Dear colleague, I am looking for the recorded inhibition at 10 µM of the following compound: `O=C(Nc1ccc(Cl)cc1)N1CCN(c2ccc3nncn3n2)CC1`
48

* * *

TEST: Metabolic stability in human liver microsomes assessed as half life at 2 uM measured up to 30 mins in presence of NADPH by LC-MS/MS analysis
Type: ADME, Microsome
EXPERIMENTAL_SETUP: liver microsomes
OBSERVABLE: half-life at 2 µM

Dear colleague, I am looking for the recorded half-life at 2 µM of the following compound: `O=C(Nc1ccc(Cl)c(Cl)c1)N1CC=C(c2ccc3nncn3n2)CC1`
> 30 min

* * *

Test system: HCT-8
TEST: Cytotoxicity against human HCT8 cells assessed as reduction in cell viability after 48 hrs by CellTiter aqueous assay
Format: cell-based
EXPERIMENTAL_SETUP: hct-8, 48 h
OBSERVABLE: CC50

Dear colleague, I am looking for the recorded CC50 of the following molecule: `O=C(Nc1ccc(Cl)c(Cl)c1)N1CCN(c2ccc3nncn3n2)CC1`
> 100 µM

Dear colleague, I am looking for the recorded CC50 of the following molecule: `O=C(Nc1ccc(Cl)cc1)N1CCN(c2ccc3nncn3n2)CC1`
> 100 µM

Dear colleague, I am looking for the recorded CC50 of the following molecule: `O=C(Cc1ccc(Cl)c(Cl)c1)N1CCN(c2ccc3nncn3n2)CC1`
> 100 µM

* * *

TARGET_OR_SYSTEM: CYP2C9 (Homo sapiens)
Sequence (P11712 whole entry): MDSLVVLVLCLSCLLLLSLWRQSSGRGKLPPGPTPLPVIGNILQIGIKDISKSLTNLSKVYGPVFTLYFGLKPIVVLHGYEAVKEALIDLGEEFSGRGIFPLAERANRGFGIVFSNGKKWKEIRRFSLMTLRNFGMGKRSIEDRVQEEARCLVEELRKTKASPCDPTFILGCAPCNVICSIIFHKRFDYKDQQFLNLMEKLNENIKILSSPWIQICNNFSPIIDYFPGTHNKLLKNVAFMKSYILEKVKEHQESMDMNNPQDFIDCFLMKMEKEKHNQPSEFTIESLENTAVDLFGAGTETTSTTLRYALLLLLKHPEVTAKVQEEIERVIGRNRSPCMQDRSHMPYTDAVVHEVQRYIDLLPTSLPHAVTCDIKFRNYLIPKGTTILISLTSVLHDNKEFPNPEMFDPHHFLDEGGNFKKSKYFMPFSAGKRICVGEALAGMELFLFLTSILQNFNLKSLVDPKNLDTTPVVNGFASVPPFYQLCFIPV
TEST: Inhibition of CYP2C9 (unknown origin) at 10 uM relative to control
Format: ADME
OBSERVABLE: inhibition at 10 µM (%)
Note: unit % is implicit; provide only the numeric part.

Dear colleague, I am looking for the recorded inhibition at 10 µM of the following compound: `O=C(Cc1ccc(Cl)c(Cl)c1)N1CCN(c2ccc3nncn3n2)CC1`
31

* * *

Test system: Cryptosporidium hominis
TEST: Anti-cryptosporidial activity against Cryptosporidium hominis infected in HCT-8 cells pre-infected for 3 hrs followed by compound treatment and measured after 45 hrs by fluorescence microscopy analysis
Format: functional, organism-based
// reported EC50 per item
Note: unit µM is implicit; provide only the numeric part.

Dear colleague, I am looking for the recorded EC50 of the following compound: `O=C(Nc1ccc(Cl)cc1)N1CCN(c2ccc3nncn3n2)CC1`
6

Dear colleague, I am looking for the recorded EC50 of the following compound: `O=C(Nc1ccc(Cl)c(Cl)c1)N1CCN(c2ccc3nncn3n2)CC1`
0.56

* * *

// reported solubility kinetic per item
TEST: Kinetic aqueous solubility of the compound in pH 7.4
Assay type: physicochemical
EXPERIMENTAL_SETUP: buffer, read-out: Kinetic_solubility
Note: unit µM is implicit; provide only the numeric part.

Some molecules with recorded solubility kinetic:
[
  {
    "MOLECULE": "O=C(Cc1ccc(Cl)c(Cl)c1)N1CCN(c2ccc3nncn3n2)CC1",
    "VALUE_UNIT": "µM",
    "solubility kinetic": 18
  },
  {
    "MOLECULE": "O=C(Nc1ccc(Cl)c(Cl)c1)N1CC=C(c2ccc3nncn3n2)CC1",
    "VALUE_UNIT": "µM",
    "solubility kinetic": 59
  },
  {
    "MOLECULE": "O=C(Nc1ccc(Cl)cc1)N1CCN(c2ccc3nncn3n2)CC1",
    "VALUE_UNIT": "µM",
    "solubility kinetic": 200
  },
  {
    "MOLECULE": "O=C(Cc1ccc(Cl)cc1)N1CCN(c2ccc3nncn3n2)CC1",
    "VALUE_UNIT": "µM",
    "solubility kinetic": 10
  }
]

// moving on: another record for solubility kinetic
Dear colleague, I am looking for the recorded solubility kinetic of the following molecule: `O=C(Nc1ccc(Cl)c(Cl)c1)N1CCN(c2ccc3nncn3n2)CC1`
1.8
